Organism: Rattus norvegicus
assay.procedure: DrugMatrix - Regimen: Daily Repeat
Type: toxicity, organism-based, Sprague-Dawley
Set-up: regimen Daily Repeat, gender Male, age 6-8 weeks
condition: in vivo, ip, 0 mg/kg, […], tissue Blood, route intraperitoneal, dose level Control, time 28 day, vehicle 100 % SALINE
endpoint: ABSOLUTE EOSINOPHIL (cells/µL)
Lab book: enter the figure in cells/µL, no units written.

stdin: Quote ABSOLUTE EOSINOPHIL reported for CCN[C@@H]1C[C@H](N)[C@@H](O[C@H]2OC(CN)=CC[C@H]2N)[C@H](O)[C@H]1O[C@H]1OC[C@](C)(O)[C@H](NC)[C@H]1O [NETILMICIN] please.
stdout: 110

====

ABSOLUTE EOSINOPHIL values by entry
Species on record: Rattus norvegicus
Format: toxicity, organism-based, Sprague-Dawley
condition: in vivo, po, 0 mg/kg, 24 h, vehicle control, tissue Blood, route oral GAVAGE, dose level Control, time 1 day, […]
Description: DrugMatrix - Regimen: Single
Express the result in CELLS/uL but write the number alone.

>>> df
                                   compound  unit_abbreviation  test_value
0  S=C=Nc1cccc2ccccc12 [1-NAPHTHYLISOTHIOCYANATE]           CELLS/uL       23.83

# ---- query compound ----
stdin: Quickly give me recorded ABSOLUTE EOSINOPHIL for CCOC(=O)C(C)(C)Oc1ccc(Cl)cc1 [CLOFIBRATE]
stdout: 90.83

====

Catalogue of CREATINE PHOSPHOKINASE values
Species on record: Rattus norvegicus
assay.procedure: DrugMatrix - Regimen: Daily Repeat
Type: toxicity, organism-based, Sprague-Dawley
Design: regimen Daily Repeat, gender Male, age 6-8 weeks
condition: in vivo, po, 10 mg/kg, 72 h, tissue Plasma, route oral GAVAGE, dose level Low, time 3 day, […]
Just the number plus its unit, please.

Here are 3 molecules together with their reported answers.
>>> df
                                   molecule                endpoint  test_value
0  COCCOC(=O)C1=C(C)NC(C)=C(C(=O)OC(C)C)C1c1cccc([N+](=O)[O-])c1 (centres undefined)  CREATINE PHOSPHOKINASE     468 u/L
1  CC(C)CC(N(C)C)C1(c2ccc(Cl)cc2)CCC1 (centres undefined)  CREATINE PHOSPHOKINASE  531.67 u/L
2  CCOC(=O)C1=C(C)NC(C)=C(C(=O)OC)C1c1cccc([N+](=O)[O-])c1 (centres undefined)  CREATINE PHOSPHOKINASE  319.33 u/L

Then this molecule:
stdin: Tell us which CREATINE PHOSPHOKINASE value is on record for COc1ccc2cc([C@H](C)C(=O)O)ccc2c1
stdout: 295.33 u/L

====

Species: Rattus norvegicus
assay.procedure: DrugMatrix - Regimen: Daily Repeat
Assay type: toxicity, organism-based, Sprague-Dawley
Set-up: regimen Daily Repeat, gender Male, age 6-8 weeks
condition: in vivo, po, 1500 mg/kg, 72 h, tissue Blood, route oral GAVAGE, dose level High, time 3 day, vehicle .5 % CMC
# MEAN CORPUSCULAR HEMOGLOBIN annotations
Express it in pg; write the number only.

Sample records with MEAN CORPUSCULAR HEMOGLOBIN:
molecule	MEAN CORPUSCULAR HEMOGLOBIN, pg
CNC(=C[N+](=O)[O-])NCCSCc1ccc(CN(C)C)o1	24.97
Cc1ccc(S(=O)(=O)NC(=O)NN2CC3CCCC3C2)cc1 (centres undefined) [GLICLAZIDE]	24.4
Cc1cc(=O)n(-c2ccccc2)n1C [ANTIPYRINE]	25.6

stdin: Given CO[C@H]1/C=C/O[C@@]2(C)Oc3c(C)c(O)c4c(c3C2=O)C2=NC3(CCN(CC(C)C)CC3)NC2=C(NC(=O)/C(C)=C\C=C\[C@H](C)[C@H](O)[C@@H](C)[C@@H](O)[C@@H](C)[C@H](OC(C)=O)[C@@H]1C)C4=O , respond with its MEAN CORPUSCULAR HEMOGLOBIN.
stdout: 24.13

====

Organism: Rattus norvegicus
assay.procedure: DrugMatrix - Regimen: Daily Repeat
Format: toxicity, organism-based, Sprague-Dawley
Design: regimen Daily Repeat, gender Male, age 6-8 weeks
condition: in vivo, po, 0 mg/kg, 120 h, tissue Blood, route oral GAVAGE, dose level Control, time 5 day, vehicle 100 % WATER
The entries below come with measured ABSOLUTE SEGMENTED NEUTROPHIL values attached.
Express it in CELLS/uL; write the number only.

In [3]: df
Out[3]:
                 compound                       endpoint  unit_abbreviation  test_value
0  ClC(Cl)Cl [CHLOROFORM]  ABSOLUTE SEGMENTED NEUTROPHIL           CELLS/uL      674.83

stdin: Give a short answer stating reported ABSOLUTE SEGMENTED NEUTROPHIL for COC(=O)C1=C(C)NC(C)=C(C(=O)OCC(C)C)C1c1ccccc1[N+](=O)[O-] (centres undefined) [NISOLDIPINE] .
stdout: 762.83

stdin: Supply ABSOLUTE SEGMENTED NEUTROPHIL value. Item: C[C@@H]1C[C@@H]([C@H](O)CC2CC(=O)NC(=O)C2)C(=O)[C@@H](C)C1 [CYCLOHEXIMIDE]
stdout: 666.5

stdin: Supply reported ABSOLUTE SEGMENTED NEUTROPHIL belonging to this compound: CC(C)(C)c1ccc(C(=O)CCCN2CCC(OC(c3ccccc3)c3ccccc3)CC2)cc1 [EBASTINE]
stdout: 1581.67

stdin: Tell me its ABSOLUTE SEGMENTED NEUTROPHIL given Nc1ccn([C@@H]2CS[C@H](CO)O2)c(=O)n1 [LAMIVUDINE] as the entry.
stdout: 503

stdin: // Input: C[N+](C)(C)CCO.[Cl-] [CHOLINE CHLORIDE] . Output its ABSOLUTE SEGMENTED NEUTROPHIL only.
stdout: 1187.83

stdin: Return the recorded ABSOLUTE SEGMENTED NEUTROPHIL value; entry: Cc1ncc([N+](=O)[O-])n1CCO [METRONIDAZOLE]
stdout: 674.83

stdin: Answer with the recorded ABSOLUTE SEGMENTED NEUTROPHIL for the compound listed here: CC(C)NCC(O)COc1cccc2ccccc12 (centres undefined) [PROPRANOLOL]
stdout: 1313.67

stdin: Specify ABSOLUTE SEGMENTED NEUTROPHIL for CC(C)C[C@H](NC(=O)[C@@H](O)[C@H](N)Cc1ccccc1)C(=O)O [UBENIMEX] and stop.
stdout: 2116.33

====

Measured ALANINE AMINOTRANSFERASE, listed per entry.
Species: Rattus norvegicus
assay.procedure: DrugMatrix - Regimen: Daily Repeat
Type: toxicity, organism-based, Sprague-Dawley
Parameters: regimen Daily Repeat, gender Male, age 6-8 weeks
condition: in vivo, po, 1500 mg/kg, 120 h, tissue Plasma, route oral GAVAGE, dose level High, time 5 day, vehicle .5 % CMC
Hi! Could you send only the number? It should be in u/L, unit omitted.

>>> df
                        compound  test_value
0  NC(=O)c1cnccn1 [PYRAZINAMIDE]       56.33

stdin: Using known records, supply ALANINE AMINOTRANSFERASE for C[C@]1(Cn2ccnn2)[C@H](C(=O)O)N2C(=O)C[C@H]2S1(=O)=O
stdout: 58.67

stdin: Hello, please tell me recorded ALANINE AMINOTRANSFERASE for this one: CNC(=C[N+](=O)[O-])NCCSCc1ccc(CN(C)C)o1
stdout: 57.33

====

Species: Rattus norvegicus
assay.procedure: DrugMatrix - Regimen: Daily Repeat
Format: toxicity, organism-based, Sprague-Dawley
Set-up: regimen Daily Repeat, gender Male, age 6-8 weeks
condition: in vivo, po, 0 mg/kg, 72 h, tissue Plasma, route oral GAVAGE, dose level Control, time 3 day, vehicle .5 % CMC
API: label(entry) gives y if the entry's TOTAL BILIRUBIN is strictly smaller than 0.5 mg/dL; on equality or larger values it gives n.

>>> print(df.to_string())
                                   molecule  class
0  O=C1CCC(N2C(=O)c3ccccc3C2=O)C(=O)N1 (stereo unspecified) [THALIDOMIDE]      n

stdin: I wonder whether Cc1onc(-c2ccccc2)c1-c1ccc(S(N)(=O)=O)cc1 has TOTAL BILIRUBIN below 0.5 mg/dL. Can you tell?
stdout: y

stdin: For Clc1ccc2c(c1)C(N1CCNCC1)=Nc1ccccc1O2 , is the recorded TOTAL BILIRUBIN below the cut-off of 0.5 mg/dL?
stdout: y

stdin: Would you kindly verify if TOTAL BILIRUBIN of CC[C@@H](CO)NCCN[C@@H](CC)CO is strictly less than 0.5 mg/dL?
stdout: y

stdin: # TODO verify TOTAL BILIRUBIN < 0.5 mg/dL strictly for this molecule: C[C@](O)(CS(=O)(=O)c1ccc(F)cc1)C(=O)Nc1ccc(C#N)c(C(F)(F)F)c1 [(R)-BICALUTAMIDE]
stdout: y

stdin: Determine whether this molecule shows TOTAL BILIRUBIN lower than 0.5 mg/dL (ties excluded): C[C@]1(Cn2ccnn2)[C@H](C(=O)O)N2C(=O)C[C@H]2S1(=O)=O
stdout: y
